molecular target: Sigma intracellular receptor 2 (Rattus norvegicus); test: Displacement of [3H]-di-o-tolylguanidine from sigma2 receptor in rat liver membranes incubated for 120 mins by scintillation counting method; format: cell membranes, Membrane
measurement-label: Ki (nM)
Numbers only, in nM.

Here's what some known entries look like.
- compound: "Cc1ccc(CNC2CCC3(CC2)O[C@H](O)Cc2ccccc23)c(C)c1 (stereo partly specified)"
  readout-units: "nM"
  Ki: 181
- compound: "Cc1ccc(CNC2CCC3(CC2)O[C@@H](CCO)Cc2ccccc23)c(C)c1 (stereo partly specified)"
  readout-units: "nM"
  Ki: 179
- compound: "CO[C@H]1Cc2ccccc2C2(CCC(NCc3ccc(C)cc3C)CC2)O1 (stereo partly specified)"
  readout-units: "nM"
  Ki: 54
- compound: "FCC[C@@H]1Cc2ccccc2C2(CCC(N3CCN(C4CCCCC4)CC3)CC2)O1 (stereo partly specified)"
  readout-units: "nM"
  Ki: 45
- compound: "FCC[C@@H]1Cc2ccccc2C2(CCC(NC3CCc4ccccc4CC3)CC2)O1 (stereo partly specified)"
  readout-units: "nM"
  Ki: 305
- compound: "CO[C@@H]1Cc2ccccc2C2(CCC(N3CCN(C4CCCCC4)CC3)CC2)O1 (stereo partly specified)"
  readout-units: "nM"
  Ki: 62

For every record below, what is its Ki?
1. COc1cccc2c1CCCC2CCCN1CCN(C2CCCCC2)CC1 (stereo unspecified)
2. CCOC(=O)C[C@H]1Cc2ccccc2C2(CCC(N3CCc4cc(OC)c(OC)cc4C3)CC2)O1 (stereo partly specified)
3. CO[C@H]1Cc2ccccc2C2(CCC(N3CCN(C4CCCCC4)CC3)CC2)O1 (stereo partly specified)
4. CCOC(=O)C[C@H]1Cc2ccccc2C2(CCC(N3CCN(C4CCCCC4)CC3)CC2)O1 (stereo partly specified)
5. Cc1ccc(CNC2CCC3(CC2)O[C@H](CCO)Cc2ccccc23)c(C)c1 (stereo partly specified)

Result:
1. 0.68
2. 343
3. 213
4. 51
5. 381

----------
biological target: UniProtKB P97266
Sequence (P97266 whole entry): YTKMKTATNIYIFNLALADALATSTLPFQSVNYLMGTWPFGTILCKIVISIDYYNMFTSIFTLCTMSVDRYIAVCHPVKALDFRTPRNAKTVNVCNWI
measurement-label: pKi
Answers are plain numbers, as −log10 of the molar value.

Task: Value lookup for pKi; key = CCOC(=O)C[C@H]1Cc2ccccc2C2(CCC(N3CCN(C4CCCCC4)CC3)CC2)O1 (stereo partly specified)
Result: 6.34

----------
Provide the recorded Ki for the entries that follow.
target: Sigma intracellular receptor 2 (Rattus norvegicus, UniProt Q5U3Y7); assay: Displacement of [3H]-di-o-tolylguanidine from sigma2 receptor in rat liver membranes incubated for 120 mins by scintillation counting method; format: cell membranes, Membrane
Sequence (Q5U3Y7 whole entry): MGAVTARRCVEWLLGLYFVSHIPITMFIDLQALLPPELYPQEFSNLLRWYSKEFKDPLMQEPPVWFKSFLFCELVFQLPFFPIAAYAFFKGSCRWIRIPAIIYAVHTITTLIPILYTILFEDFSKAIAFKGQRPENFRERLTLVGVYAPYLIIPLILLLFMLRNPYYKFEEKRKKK
Answers are plain numbers, in nM.

Examples with answers:
- compound: "CCOC(=O)C[C@@H]1Cc2ccccc2C2(CCC(N3CCN(C4CCCCC4)CC3)CC2)O1 (stereo partly drawn)"
  readout-units: "nM"
  meas-value: 355
- compound: "CO[C@@H]1Cc2ccccc2C2(CCC(NCc3ccc(C)cc3C)CC2)O1 (stereo partly drawn)"
  readout-units: "nM"
  meas-value: 7.6

Task: Return Ki measured with Sigma intracellular receptor 2 (Rattus norvegicus, UniProt Q5U3Y7) given this compound: CO[C@@H]1Cc2ccccc2C2(CCC(NC3CCc4ccccc4CC3)CC2)O1 (stereo partly drawn)
Result: 49

----------
target: Sigma intracellular receptor 2 (Rattus norvegicus); experiment: Displacement of [3H]-di-o-tolylguanidine from sigma2 receptor in rat liver membranes incubated for 120 mins by scintillation counting method; type: cell membranes, Membrane
Please go through the items and note down their pKi.
One number for each entry, as −log10 of the molar value.

Sample answers from the record:
- compound: "COc1cc2c(cc1OC)CN(C1CCC3(CC1)O[C@H](OC)Cc1ccccc13)CC2 (stereo not given in full)"
  pKi: 7.24
- compound: "COc1cc2c(cc1OC)CN(C1CCC3(CC1)O[C@@H](OC)Cc1ccccc13)CC2 (stereo not given in full)"
  pKi: 6.98
- compound: "CO[C@H]1Cc2ccccc2C2(CCC(NC3CCc4ccccc4CC3)CC2)O1 (stereo not given in full)"
  pKi: 7.11
- compound: "COc1cc2c(cc1OC)CN(CCCCNC(=O)c1cc(Br)cc(OC)c1OC)CC2"
  pKi: 8.09

Task: Fill in: pKi of Cc1ccc(CNC2CCC3(CC2)O[C@@H](O)Cc2ccccc23)c(C)c1 (stereo not given in full) is ___
Result: 7.18
